Hello, the source for this data is PubChem BioAssay AID2031, in case you need it.

- Measurement Target: Rab7 GTPase wild-type (dog), GST fusion
- Test: analogs blocking nucleotide binding to wildtype Rab7 – biochemical, oxadiazole analogs, multiplex bead flow cytometry, SAR follow-up (AID 2031)
- Experimental Setup: bead-based flow cytometry, Bodipy-FL-GTP binding; Ki calculated from EC50
Assay Metric: Ki (nM)

{"Structure Smiles": "COc1ccc(-c2noc(CCC(=O)N3CCN(c4cccc(Cl)c4)CC3)n2)cc1", "Value Unit": "nM", "Ki": 2030}

P. Cc1ccc(C)c(N2CCN(C(=O)CCc3nc(-c4cccc(Br)c4)no3)CC2)c1
Q. Cc1ccc(C)c(N2CCN(C(=O)CCc3nc(-c4cccc(C(F)(F)F)c4)no3)CC2)c1
R. COc1ccc(-c2noc(CCCC(=O)N3CCN(c4cc(C)ccc4C)CC3)n2)cc1
S. COc1ccc(-c2noc(CCC(=O)N3CCN(c4cc(C)ccc4C)CC3)n2)cc1
Output the entries ranked by Ki from maximum down to minimum. Returns: the labels arranged in the requested order.
R, P, S, Q
(R: 940 nM, P: 230 nM, S: 160 nM, Q: 50 nM)

a. Cc1ccc(-c2noc(CCC(=O)N3CCN(c4cc(C)ccc4C)CC3)n2)cc1
b. Cc1ccc(C)c(N2CCN(C(=O)CCc3nc(-c4ccc(F)cc4)no3)CC2)c1
# query: argmin of Ki over a and b Pick one; state its label.
b

a. Cc1cccc(-c2noc(CCC(=O)N3CCN(c4cc(C)ccc4C)CC3)n2)c1
b. Cc1ccc(C)c(N2CCN(C(=O)CCc3nc(-c4ccc(Br)cc4)no3)CC2)c1
c. COc1ccc(-c2noc(CCC(=O)N3CCN(c4ccccc4Br)CC3)n2)cc1
d. COc1ccc(-c2cc(CCC(=O)N3CCN(c4cc(C)ccc4C)CC3)on2)cc1
Endpoint returns the given compounds ordered by ascending Ki. Returns: the labels arranged in the requested order.
d, a, b, c
(d: 20 nM, a: 70 nM, b: 100 nM, c: 150 nM)
